Listed below: MIC values for each entry.
System: [Candida] zeylanoides
Assay: Antifungal activity against Candida zeylanoides NRRL Y-112
Type: functional
Conditions: Dujonia zeylanoides; read-out: MIC
Starred links: 1 amine or outer side, 2 acyl side, 3 side chain; linkers in the order of their positions; H or OH if unused. Positions of bridges follow the written chain, without caps; N, C: chain ends. Non-standard residues stand in square brackets, D forms with d. Residues, ends and D or L forms follow the SMILES beside them. *: point of attachment. pTerphenylCO(4''-OnC5H11) = CCCCCOc1ccc(-c2ccc(-c3ccc(C(=O)*)cc3)cc2)cc1; Pro(cis-4-guanidino) = NC(N)=N[C@@H]1CN[C@H](C(=O)O)C1; hTyr(3-COCH2NH2) = NCC(=O)c1cc(CC[C@H](N)C(=O)O)ccc1O; X3 = CCCCCCCCOc1ccc(N2CCN(c3ccc(C(=O)*)cc3)CC2)cc1; X6 = NCC(=O)[C@H]1C[C@@H](C(=O)[*:2])N([*:1])C1; Pro(4S-NH2) = N[C@@H]1CN[C@H](C(=O)O)C1; Hyp = O=C(O)[C@@H]1C[C@@H](O)CN1; Orn = NCCC[C@H](N)C(=O)O

INSERT INTO measurements (compound, value) VALUES
  ('CCCCCCCCOc1ccc(N2CCN(c3ccc(C(=O)N[C@H]4CCCNC(=O)[C@@H]5C[C@H](N=C(N)N)CN5C(=O)[C@H]([C@@H](C)O)NC(=O)[C@H](CCc5ccc(O)c(C(=O)CN)c5)NC(=O)[C@@H]5C[C@@H](O)CN5C(=O)[C@H]([C@@H](C)O)NC4=O)cc3)CC2)cc1 (X3-[Orn]T[Hyp][hTyr(3-COCH2NH2)]T[Pro(cis-4-guanidino)]; lactam 1-C)', '3.12 µg/mL');

Enquiry: # query: MIC | item CCCCCCCCOc1ccc(N2CCN(c3ccc(C(=O)N[C@H]4CCCNC(=O)[C@@H]5C[C@H](C(=O)CN)CN5C(=O)[C@H]([C@@H](C)O)NC(=O)[C@H](CCc5ccc(O)c(C(=O)CN)c5)NC(=O)[C@@H]5C[C@@H](O)CN5C(=O)[C@H]([C@@H](C)O)NC4=O)cc3)CC2)cc1 (X3-[Orn]T[Hyp][hTyr(3-COCH2NH2)]T[X6]; lactam 1-C) | system: [Candida] zeylanoides
Return: 1.56 µg/mL

Enquiry: # query: MIC | item CCCCCOc1ccc(-c2ccc(-c3ccc(C(=O)N[C@H]4CCCNC(=O)[C@@H]5C[C@H](N)CN5C(=O)[C@H]([C@@H](C)O)NC(=O)[C@H](CCc5ccc(O)c(C(=O)CN)c5)NC(=O)[C@@H]5C[C@@H](O)CN5C(=O)[C@H]([C@@H](C)O)NC4=O)cc3)cc2)cc1 ({pTerphenylCO(4''-OnC5H11)}-[Orn]T[Hyp][hTyr(3-COCH2NH2)]T[Pro(4S-NH2)]; lactam 1-C) | system: [Candida] zeylanoides
Return: 0.1 µg/mL

* * *

Assay: Terminal phase volume of distribution was measured in rat after an iv dose of 1 mg/kg
Format: ADME, organism-based
Set-up: dose 1 mg/kg, route intravenous
Details: in vivo, read-out: Va beta
Starred links: 1 amine or outer side, 2 acyl side, 3 side chain; linkers in the order of their positions; H or OH if unused. Positions of bridges follow the written chain, without caps; N, C: chain ends. Non-standard residues stand in square brackets, D forms with d. Residues, ends and D or L forms follow the SMILES beside them. *: point of attachment. pTerphenylCO(4''-OnC5H11) = CCCCCOc1ccc(-c2ccc(-c3ccc(C(=O)*)cc3)cc2)cc1; X1 = NCC(=O)Nc1cc(CC[C@H](N[*:1])C(=O)[*:2])ccc1O; X2 = NC(N)=N[C@H]1CC(C(=O)[*:2])N([*:1])C1; Hyp = O=C(O)[C@@H]1C[C@@H](O)CN1; Orn = NCCC[C@H](N)C(=O)O
Recorded Metric: Vd (L/kg)
Reply with just the number (in L/kg).

Enquiry: // Vd lookup, key: CCCCCOc1ccc(-c2ccc(-c3ccc(C(=O)N[C@H]4CCCNC(=O)C5C[C@H](N=C(N)N)CN5C(=O)[C@H]([C@@H](C)O)NC(=O)[C@H](CCc5ccc(O)c(NC(=O)CN)c5)NC(=O)[C@@H]5C[C@@H](O)CN5C(=O)[C@H]([C@@H](C)O)NC4=O)cc3)cc2)cc1 (stereo partly specified) ({pTerphenylCO(4''-OnC5H11)}-[Orn]T[Hyp][X1]T[X2]; lactam 1-C)
Return: 2.2
